pKi: −log10 of the molar value.
System: 5-hydroxytryptamine receptor 2A (Rattus norvegicus) | Read-out: pKi
Sequence (P14842 whole entry): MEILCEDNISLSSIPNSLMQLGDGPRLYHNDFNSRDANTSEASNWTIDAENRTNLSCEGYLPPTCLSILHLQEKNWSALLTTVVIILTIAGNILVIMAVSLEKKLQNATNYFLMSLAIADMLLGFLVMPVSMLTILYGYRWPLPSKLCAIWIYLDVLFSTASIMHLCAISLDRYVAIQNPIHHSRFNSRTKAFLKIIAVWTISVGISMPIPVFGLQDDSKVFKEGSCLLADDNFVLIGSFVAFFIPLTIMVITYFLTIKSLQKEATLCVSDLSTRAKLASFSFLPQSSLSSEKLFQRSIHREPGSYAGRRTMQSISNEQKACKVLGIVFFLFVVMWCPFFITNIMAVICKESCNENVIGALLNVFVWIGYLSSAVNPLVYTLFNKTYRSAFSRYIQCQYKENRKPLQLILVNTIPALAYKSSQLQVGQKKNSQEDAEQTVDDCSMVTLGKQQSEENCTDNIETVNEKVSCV

compound	target	pKi
C[C@@H]1CNCCN1c1ccc2c(n1)[C@@H](OCc1cc(F)ccc1F)CC2	5-hydroxytryptamine receptor 2A (Rattus norvegicus)	7.80
Clc1ccccc1O[C@H]1CCc2ccc(N3CCNCC3)nc21	5-hydroxytryptamine receptor 2A (Rattus norvegicus)	9.00
Clc1ccccc1OC1CCc2ccc(N3CCNCC3)nc21 (centres undefined)	5-hydroxytryptamine receptor 2A (Rattus norvegicus)	8.42
Clc1ccccc1O[C@@H]1CCCc2ccc(N3CCNCC3)nc21	5-hydroxytryptamine receptor 2A (Rattus norvegicus)	8.70
Fc1ccc(F)c(CO[C@H]2CCc3ccc(N4CCNCC4)nc32)c1	5-hydroxytryptamine receptor 2A (Rattus norvegicus)	7.82
c1cc2c(nc1N1CCNCC1)CCCC2	5-hydroxytryptamine receptor 2A (Rattus norvegicus)	7.68
Clc1ccccc1O[C@H]1CCCc2ccc(N3CCNCC3)nc21	5-hydroxytryptamine receptor 2A (Rattus norvegicus)	9.15
Cc1ccc(F)cc1CO[C@H]1CCc2ccc(N3CCNC[C@H]3C)nc21	5-hydroxytryptamine receptor 2A (Rattus norvegicus)	8.36
Clc1ccccc1O[C@@H]1CCc2ccc(N3CCNCC3)nc21	5-hydroxytryptamine receptor 2A (Rattus norvegicus)	7.39
